assay: Drug uptake in Swiss albino mouse plasma at 25 mg/kg, ip administered as single dose measured after 0.5 hrs; type: ADME, organism-based
measurement name: concentration at 0.5 h

// `Nc1nc(NCc2ccc(Oc3ccccc3)cc2)nc(-c2c(F)cccc2CO)n1` : concentration at 0.5 h value = > 10 µM

---

target: G-protein coupled receptor 68 (Homo sapiens); assay: Positive allosteric modulation of human GPR68 expressed in HEK293T cells co-expressing Gs assessed as stimulation of proton-mediated cAMP production by measuring efficacy cooperativity in HBSS buffer containing pH 6.8 to 8.2 HEPES/pH 8.3 to 8.6 TAPS measured after 20 to 30 mins in presence of PDE inhibitor Ro 20-1724 by luciferase-glo reporter gene assay; assay type: functional, cell-based
The source made the active and inactive calls. No cut-off for these calls is given here.
measurement name: log(activity)

Answered examples (10):
{"columns": ["smi", "log(activity)"],
 "data": [
  ["COc1ccc(-c2nc(N)nc(NCc3ccccc3)n2)c(CO)c1", 0.14],
  ["Cc1ccccc1CNc1nc(N)nc(-c2ccccc2CO)n1", 0.33],
  ["CC(C)Oc1ccc(CNc2nc(N)nc(-c3ccccc3CO)n2)cc1", 0.17],
  ["CC(=O)c1cccc(-c2nc(N)nc(NCc3ccccc3)n2)c1", "inactive"],
  ["Nc1cc(-c2ccccc2CO)nc(NCc2ccccc2)n1", "inactive"],
  ["COc1ccc(CNc2nc(N)nc(-c3ccccc3CO)n2)cc1", 0.49],
  ["Nc1nc(NCc2cccc(F)c2)nc(-c2ccccc2CO)n1", 0.33],
  ["CNCc1ccccc1-c1nc(N)nc(NCc2ccccc2)n1", "inactive"],
  ["Nc1nc(NCc2ccccc2)nc(-c2cccc(CO)c2)n1", "inactive"],
  ["Cc1cccc(CNc2nc(N)nc(-c3ccccc3CO)n2)c1", 0.25]
]}

// `COc1ccc(CO)c(-c2nc(N)nc(NCc3ccccc3)n2)c1` : log(activity) value = 0.18

// `CC(C)Oc1ccc(-c2nc(N)nc(NCc3ccccc3)n2)c(CO)c1` : log(activity) value = 0.27

---

target: G-protein coupled receptor 68 (Homo sapiens); experiment: Positive allosteric modulation of human GPR68 expressed in HEK293T cells co-expressing Gs assessed as stimulation of proton-mediated cAMP production by measuring allosteric index in HBSS buffer containing pH 6.8 to 8.2 HEPES/pH 8.3 to 8.6 TAPS measured after 20 to 30 mins in presence of PDE inhibitor Ro 20-1724 by luciferase-glo reporter gene assay; type: functional, cell-based
For each entry below, report its Activity index value.
Output spec: single numeric token, no unit.

For `Nc1nc(NCCCc2ccccc2)nc(-c2ccccc2CO)n1` on G-protein coupled receptor 68 (Homo sapiens), measured Activity index was 6.11

For `Nc1nc(NCc2ccccc2)nc(-c2ccc(F)cc2CO)n1` on G-protein coupled receptor 68 (Homo sapiens), measured Activity index was 5.46

For `Nc1nc(NCc2ccccc2Cl)nc(-c2ccccc2CO)n1` on G-protein coupled receptor 68 (Homo sapiens), measured Activity index was 5.94

For `Nc1nc(NCc2cccc(F)c2)nc(-c2ccccc2CO)n1` on G-protein coupled receptor 68 (Homo sapiens), measured Activity index was 5.55

For `Nc1nc(NCc2ccccc2)nc(-c2c(F)cccc2CO)n1` on G-protein coupled receptor 68 (Homo sapiens), measured Activity index was 5.19

For `Nc1nc(NCCCc2ccccc2)nc(-c2c(F)cccc2CO)n1` on G-protein coupled receptor 68 (Homo sapiens), measured Activity index was 5.67

For `Nc1nc(NCc2ccccc2F)nc(-c2c(F)cccc2CO)n1` on G-protein coupled receptor 68 (Homo sapiens), measured Activity index was 5.4

For `CNc1nc(NCc2ccccc2)nc(-c2ccccc2CO)n1` on G-protein coupled receptor 68 (Homo sapiens), measured Activity index was 5.36

For `Nc1nc(NCc2cccc(Cl)c2)nc(-c2ccccc2CO)n1` on G-protein coupled receptor 68 (Homo sapiens), measured Activity index was 5.9

For `Nc1nc(NCCc2ccccc2)nc(-c2cc(Cl)ccc2CO)n1` on G-protein coupled receptor 68 (Homo sapiens), measured Activity index was 6.26

For `Nc1nc(NCc2ccc(Oc3ccccc3)cc2)nc(-c2cc(Cl)ccc2CO)n1` on G-protein coupled receptor 68 (Homo sapiens), measured Activity index was 5.78

For `COc1ccccc1CNc1nc(N)nc(-c2ccccc2CO)n1` on G-protein coupled receptor 68 (Homo sapiens), measured Activity index was 5.03

For `Nc1nc(NCc2ccccc2)nc(-c2cccc(F)c2CO)n1` on G-protein coupled receptor 68 (Homo sapiens), measured Activity index was 4.86

For `Nc1nc(NCCCc2ccc(Oc3ccccc3)cc2)nc(-c2ccccc2CO)n1` on G-protein coupled receptor 68 (Homo sapiens), measured Activity index was 5.84

For `Nc1nc(NCc2cccc(C(F)(F)F)c2)nc(-c2ccccc2CO)n1` on G-protein coupled receptor 68 (Homo sapiens), measured Activity index was 6.07

For `Nc1nc(NCCCc2ccc(Oc3ccccc3)cc2)nc(-c2c(F)cccc2CO)n1` on G-protein coupled receptor 68 (Homo sapiens), measured Activity index was 6.1

For `Nc1nc(NCc2ccc(F)cc2)nc(-c2ccccc2CO)n1` on G-protein coupled receptor 68 (Homo sapiens), measured Activity index was 5.42

For `Nc1nc(NCc2ccc(Oc3ccccc3)cc2)nc(-c2ccccc2CO)n1` on G-protein coupled receptor 68 (Homo sapiens), measured Activity index was 6.14

For `Nc1nc(NCCc2ccccc2)nc(-c2ccccc2CO)n1` on G-protein coupled receptor 68 (Homo sapiens), measured Activity index was 5.62

For `Nc1nc(NCCc2ccc(Oc3ccccc3)cc2)nc(-c2c(F)cccc2CO)n1` on G-protein coupled receptor 68 (Homo sapiens), measured Activity index was 6.14

For `Nc1nc(NCCc2ccc(Oc3ccccc3)cc2)nc(-c2cc(Cl)ccc2CO)n1` on G-protein coupled receptor 68 (Homo sapiens), measured Activity index was 5.87

For `Nc1nc(NCc2ccccc2)nc(-c2cc(Cl)ccc2CO)n1` on G-protein coupled receptor 68 (Homo sapiens), measured Activity index was 5.78

For `Nc1nc(NCc2ccccc2)nc(-c2ccc(Cl)cc2CO)n1` on G-protein coupled receptor 68 (Homo sapiens), measured Activity index was 5.87

For `Nc1nc(NCCCCc2ccccc2)nc(-c2cc(Cl)ccc2CO)n1` on G-protein coupled receptor 68 (Homo sapiens), measured Activity index was 6.14

Recorded values, source ChEMBL document CHEMBL4406806.
